Read-out: Apoptosis regulator Bcl-2 (Homo sapiens)
Protocol details: LTEA_HepaRG_BCL2: Life Technologies and Expression Analysis (LTEA) Assay for Bcl-2 gene using HepaRG (AID 2283475);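 further: BCL2 transcript by TaqMan qRT-PCR normalised to ACTB GAPDH and POLR2A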
Condition: mRNA level, 48 h; actives raise or lower the signal
Activity calls are given as the source filed them. How the source made its calls: active means hit-call score of the fitted dose curve at least 0.9, where 1 is the maximum; inactive means score below 0.9.
// allowed return values: active, inactive

Test call, this molecule: Cc1c(COC(=O)[C@@H]2[C@H](/C=C(\Cl)C(F)(F)F)C2(C)C)cccc1-c1ccccc1
inactive

Test call, this molecule: CS(=O)(=O)c1cc(C(F)(F)F)ccc1C(=O)c1cnoc1C1CC1
inactive

Test call, this molecule: CC1(C)C(C(=O)OC(C#N)c2cccc(Oc3ccccc3)c2)C1(C)C (configuration not stated)
inactive

Test call, this molecule: CC1(C)C(C=C(Cl)Cl)C1C(=O)OC(C#N)c1cccc(Oc2ccccc2)c1 (configuration not stated)
inactive

Test call, this molecule: COc1cc(Cl)c(OC)cc1Cl
inactive

Test call, this molecule: CO/N=C(/C1=NOCCO1)c1ccccc1Oc1ncnc(Oc2ccccc2Cl)c1F
active

Test call, this molecule: CCNP(=S)(OC)O/C(C)=C/C(=O)OC(C)C (configuration not stated)
inactive

Test call, this molecule: COCC(C)N(C(=O)CCl)c1c(C)csc1C (configuration not stated)
inactive

Test call, this molecule: CC(C)N1C(=O)c2ccccc2NS1(=O)=O
inactive

Test call, this molecule: Cc1cc(C)nc(Nc2ccccc2)n1
inactive

Test call, this molecule: COC(=O)NS(=O)(=O)c1ccc(N)cc1
inactive

Test call, this molecule: O=C(O)c1c(Cl)ccc2cc(Cl)cnc12
inactive

---

Protocol details: Tanguay_ZF_120hpf_SNOU_legacy: (Legacy) Oregon State University Tanguay Lab 120 Hour Post-fertilization zebrafish Assay for Snout Malformation (AID 2283637)
Records with an inconclusive call do not appear. Calls of active or inactive are those of the source. How the source made its calls: active means hit-call score of the fitted dose curve at least 0.9, where 1 is the maximum; inconclusive means response in the unintended direction; inactive means score below 0.9.
// allowed return values: active, inactive

Test call, this compound: CCOc1nc(C(Cl)(Cl)Cl)ns1
inactive

Test call, this compound: N#Cc1c(Cl)cccc1Cl
inactive

Test call, this compound: CCCC(=NOCC)C1=C(O)CC(CC(C)SCC)CC1=O (stereo unspecified)
inactive

Test call, this compound: CNC(=O)Oc1cccc2ccccc12
inactive

Test call, this compound: OC(c1ccc(Cl)cc1)(c1ccc(Cl)cc1)C(Cl)(Cl)Cl
inactive

Test call, this compound: COCC(C)N(C(=O)CCl)c1c(C)csc1C (stereo unspecified)
active

Test call, this compound: Clc1cccc(C(Cl)(Cl)Cl)n1
inactive

Test call, this compound: CC1(C)C(C=C(Cl)Cl)C1C(=O)OC(C#N)c1cccc(Oc2ccccc2)c1 (stereo unspecified)
active

Test call, this compound: O=C(Nc1ccccc1-c1ccc(Cl)cc1)c1cccnc1Cl
inactive

Test call, this compound: CS(=O)(=O)c1cc(C(F)(F)F)ccc1C(=O)c1cnoc1C1CC1
inactive

Test call, this compound: Cc1ccc(N=CN(C)C=Nc2ccc(C)cc2C)c(C)c1
inactive

Test call, this compound: CNC(=O)N(C)c1nnc(C(C)(C)C)s1
inactive

Test call, this compound: CCOc1nc(F)cc2nc(S(=O)(=O)Nc3c(Cl)cccc3Cl)nn12
inactive

Test call, this compound: CCN(CC)c1nc(C)cc(OP(=S)(OC)OC)n1
inactive

Test call, this compound: COc1cc(Cl)c(OC)cc1Cl
inactive

Test call, this compound: Nc1cnn(-c2ccccc2)c(=O)c1Cl
inactive

Test call, this compound: CC(C)Oc1cccc(NC(=O)c2ccccc2C(F)(F)F)c1
active

Test call, this compound: COP(=S)(OC)Oc1ccc([N+](=O)[O-])c(C)c1
inactive

Test call, this compound: CCCCC(C#N)(Cn1cncn1)c1ccc(Cl)cc1 (stereo unspecified)
active

Test call, this compound: CCCCOCN(C(=O)CCl)c1c(CC)cccc1CC
inactive

Test call, this compound: CC(C)N1C(=O)c2ccccc2NS1(=O)=O
inactive

Test call, this compound: CCCN(CC)CC1COC2(CCC(C(C)(C)C)CC2)O1 (stereo unspecified)
inactive

Test call, this compound: O=C1C2CC=CCC2C(=O)N1SC(Cl)(Cl)Cl (stereo unspecified)
inactive

Test call, this compound: COC(=O)NS(=O)(=O)c1ccc(N)cc1
inactive

Test call, this compound: CCN(CC)C(=O)C(C)Oc1cccc2ccccc12 (stereo unspecified)
inactive

Test call, this compound: COc1cc(OC)nc(NC(=O)NS(=O)(=O)c2ncccc2OCC(F)(F)F)n1
inactive
